Data origin, for the record: PubChem BioAssay AID330

# System: P388 leukemia ip, CD2F1 mice, survival T/C
# TEST_METHOD_NOTES: NCI In Vivo Anticancer Drug Screen. Data for tumor model P388 Leukemia (intraperitoneal) in CD2F1 (CDF1) mice
# CONDITIONS_USED: endpoint: median survival time; dose: 20.0 mg/kg/injection; schedule: Q01DX005 (ip); vehicle: Klucel (hydroxypropylcellulose) (HPC); higher = longer survival
Toxic doses and inconclusive results are not listed.
In this section, each of the molecules is paired with its reported T/C.

{"columns": ["MOLECULE", "T/C"],
 "data": [
  ["COc1ccc2c(c1O)Oc1c(O)ccc3c1C(C2)N(C)CC3 (stereo not given)", "100 % of control"],
  ["C=C(C)/C([O-])=N/[N+](C)(C)CC(O)CCCCCCCCCCCC (stereo not given)", "101 % of control"],
  ["COc1ccc(C(=O)C(C)Sc2ccccc2)cc1OC (stereo not given)", "105 % of control"],
  ["CC(C1CC2(C)OC2(CO)C(=O)O1)C1CCC2C3CC4OC45C(O)C4OC4C(=O)C5(C)C3CCC12C (stereo not given)", "96 % of control"],
  ["COC(=O)[C@]12CCC(C)(C)C[C@H]1C1=CC[C@@H]3[C@@]4(C)C[C@H](O)[C@H](OC5OC(CO)C(O)C(O)C5O)C(CO)(CO)[C@@H]4CC[C@@]3(C)[C@]1(C)C[C@H]2O (stereo not given in full)", "101 % of control"]
]}

* * *

# Test system: P388 leukemia ip, CD2F1 mice, survival T/C
# TEST_METHOD_NOTES: NCI In Vivo Anticancer Drug Screen. Data for tumor model P388 Leukemia (intraperitoneal) in CD2F1 (CDF1) mice
# CONDITIONS_USED: endpoint: median survival time; dose: 12.5 mg/kg/injection; schedule: Q01DX009 (ip); vehicle: Klucel (hydroxypropylcellulose) (HPC); higher = longer survival
# Protocol: The antitumor activity of compounds was measured in mice bearing transplantable tumors. Survival or tumor size were measured and the results are expressed as the measurement made in the treated group (T) divided by the measurement made in the vehicle treated control group (C). The tumor model used in this assay is P388 Leukemia (intraperitoneal) in CD2F1 (CDF1) mice
Toxic doses and inconclusive results are not listed.
In this section, each of the compounds is paired with its reported T/C.
MEASURE_NAME: T/C

{"columns": ["COMPOUND", "ASSAYED_SYSTEM", "MEASURE_NAME", "OBS_VALUE"],
 "data": [
  ["CCOC(=O)Nc1nc2ccc([N+](=O)[O-])cc2s1", "P388 leukemia ip, CD2F1 mice, survival T/C", "T/C", "107 % of control"],
  ["CC(=O)OC1OC(/C=N\\N(C)C)C(OCc2ccccc2)C(OCc2ccccc2)C1OC(C)=O (centres undefined)", "P388 leukemia ip, CD2F1 mice, survival T/C", "T/C", "92 % of control"],
  ["COc1cccc2c1C(=O)OC2=O", "P388 leukemia ip, CD2F1 mice, survival T/C", "T/C", "105 % of control"],
  ["NC(=O)c1ccc(=S)[nH]c1", "P388 leukemia ip, CD2F1 mice, survival T/C", "T/C", "106 % of control"],
  ["CCSCC1C(=O)C23CC1CCC2C12COC(O)C1C(C)(C)C(O)CC2OC3=O (centres undefined)", "P388 leukemia ip, CD2F1 mice, survival T/C", "T/C", "103 % of control"],
  ["N#CC1(C#N)C2C=CC(C3CCC=C32)C1(C#N)C#N (centres undefined)", "P388 leukemia ip, CD2F1 mice, survival T/C", "T/C", "110 % of control"],
  ["CN(C(=S)S(=O)(=O)C12CC3CC(CC(C3)C1)C2)c1ccccc1", "P388 leukemia ip, CD2F1 mice, survival T/C", "T/C", "118 % of control"],
  ["CCCCCCCCN(C)N=Nc1ccccc1C(=O)O", "P388 leukemia ip, CD2F1 mice, survival T/C", "T/C", "105 % of control"],
  ["Cc1ccc(OP(=O)(Oc2ccc(C)cc2)Oc2ccc(C)cc2)cc1.Cc1ccc(OP(=O)(Oc2ccc(C)cc2)Oc2ccc(C)cc2)cc1.Cc1ccc(OP(=O)(Oc2ccc(C)cc2)Oc2ccc(C)cc2)cc1.Cc1ccc(OP(=O)(Oc2ccc(C)cc2)Oc2cccc(C)c2)cc1.[Cd+2].[O-][Cl+3]([O-])([O-])O", "P388 leukemia ip, CD2F1 mice, survival T/C", "T/C", "95 % of control"]
]}
